MEASUREMENT_TYPE: IC50
Please state the value followed by its unit.

Bench note, Protein kinase C iota type (Homo sapiens, UniProt P41743): entry COc1cccc(COC(=O)c2c(-c3ccc(OC)c(OC)c3)csc2N)c1 , its IC50 = 900 nM

====

- TARGET_ENTITY: Protein kinase C zeta type (Homo sapiens, UniProt Q05513)
- Sequence (Q05513 whole entry): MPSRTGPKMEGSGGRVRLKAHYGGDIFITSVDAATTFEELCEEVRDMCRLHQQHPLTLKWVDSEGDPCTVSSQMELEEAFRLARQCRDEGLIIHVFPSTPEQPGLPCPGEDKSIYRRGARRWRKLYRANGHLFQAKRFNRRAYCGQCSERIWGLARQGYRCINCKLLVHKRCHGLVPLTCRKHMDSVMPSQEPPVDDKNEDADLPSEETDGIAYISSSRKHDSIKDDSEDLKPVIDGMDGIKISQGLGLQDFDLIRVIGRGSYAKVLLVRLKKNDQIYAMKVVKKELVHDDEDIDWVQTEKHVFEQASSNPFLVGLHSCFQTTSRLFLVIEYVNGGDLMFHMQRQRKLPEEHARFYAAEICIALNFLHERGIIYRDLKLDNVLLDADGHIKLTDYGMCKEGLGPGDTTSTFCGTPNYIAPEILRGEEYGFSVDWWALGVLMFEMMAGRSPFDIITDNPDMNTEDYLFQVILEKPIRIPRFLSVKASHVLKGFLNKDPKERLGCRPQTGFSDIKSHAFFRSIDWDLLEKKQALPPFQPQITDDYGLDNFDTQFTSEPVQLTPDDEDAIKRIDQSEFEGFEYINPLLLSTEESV
- PROCEDURE_DETAILS: Inhibition of atypical PKCzeta in HEK293 cells assessed as TNF-induced NFkappaB activation incubated for 3 hrs prior to TNF induction measured after 5 hrs by bright-glo luciferase reporter gene assay
MEASUREMENT_TYPE: EC50 (nM)
Please give a number only; it is taken to be in nM.

// EC50 value for COc1cccc(COC(=O)c2c(-c3ccc(OC)c(OC)c3)csc2N)c1 : 1

Per the record, O=C(c1ccc(Nc2nccc(-c3cc4ccccc4s3)n2)cc1)N1CCC(N2CCCC2)CC1 has EC50 of 3

Consider CCOC(=O)c1c(-c2ccc(N)cc2)csc1N . Its measured EC50 is 1

EC50 measured on CCOC(=O)c1c(-c2ccc(OC)cc2F)csc1N = 10

In plain terms, COc1ccc(-c2csc(N)c2C(=O)OCc2ccccc2)cc1OC has a documented EC50 of 2

Sample CCOC(=O)c1c(-c2ccc3c(c2)OCO3)csc1N ; EC50 observed: 2

====

pIC50: −log10 of the molar value.
In what follows, each item is paired with its pIC50 for UniProtKB Q12809.
Sequence (Q12809 whole entry): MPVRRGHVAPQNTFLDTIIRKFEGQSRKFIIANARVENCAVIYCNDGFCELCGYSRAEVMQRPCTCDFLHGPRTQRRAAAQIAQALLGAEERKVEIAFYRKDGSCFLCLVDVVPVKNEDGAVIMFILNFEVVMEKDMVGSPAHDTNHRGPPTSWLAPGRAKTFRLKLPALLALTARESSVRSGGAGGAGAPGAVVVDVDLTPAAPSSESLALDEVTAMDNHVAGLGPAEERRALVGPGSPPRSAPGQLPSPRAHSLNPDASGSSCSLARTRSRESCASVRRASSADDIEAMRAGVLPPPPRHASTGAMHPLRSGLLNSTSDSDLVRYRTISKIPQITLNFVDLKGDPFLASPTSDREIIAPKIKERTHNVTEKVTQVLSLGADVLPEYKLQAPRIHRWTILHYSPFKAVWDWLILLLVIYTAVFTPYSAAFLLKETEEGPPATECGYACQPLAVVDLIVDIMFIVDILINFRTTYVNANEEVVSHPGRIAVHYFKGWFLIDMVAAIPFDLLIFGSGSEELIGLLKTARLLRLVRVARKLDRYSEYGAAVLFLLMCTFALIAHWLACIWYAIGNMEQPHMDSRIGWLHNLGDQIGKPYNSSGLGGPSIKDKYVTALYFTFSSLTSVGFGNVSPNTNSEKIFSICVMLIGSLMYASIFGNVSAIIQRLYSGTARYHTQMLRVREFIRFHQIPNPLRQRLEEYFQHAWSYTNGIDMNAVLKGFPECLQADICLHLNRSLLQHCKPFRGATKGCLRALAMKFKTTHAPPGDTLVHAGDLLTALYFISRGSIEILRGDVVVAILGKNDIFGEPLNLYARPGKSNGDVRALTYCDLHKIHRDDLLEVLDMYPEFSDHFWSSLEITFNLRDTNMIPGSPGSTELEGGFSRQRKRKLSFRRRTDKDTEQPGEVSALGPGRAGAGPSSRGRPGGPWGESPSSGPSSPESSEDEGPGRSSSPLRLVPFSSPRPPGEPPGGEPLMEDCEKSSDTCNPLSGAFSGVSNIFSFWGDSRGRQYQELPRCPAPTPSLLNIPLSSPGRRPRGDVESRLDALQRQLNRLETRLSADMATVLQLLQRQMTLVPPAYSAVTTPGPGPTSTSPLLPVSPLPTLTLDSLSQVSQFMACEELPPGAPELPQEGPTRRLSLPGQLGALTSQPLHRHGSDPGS

# compound COc1ccc(-c2csc(N)c2C(=O)OC(C)C)cc1OC ; its pIC50 = < 5.00

The recorded pIC50 for CCOC(=O)c1c(-c2ccc(N(C)C)cc2)csc1N is < 5.00

Sure, the documented pIC50 for COc1cccc(COC(=O)c2c(-c3ccc(OC)c(OC)c3)csc2N)c1 is 6.00
